Assay: Measurement of Solubility in various kinds of polar solvents
Type: physicochemical
Details: solvent: Water
measurement_label: Solubility in Water (g)

CC(CO)(CO)NC(=O)C(C)(C)N=NC(C)(C)C(=O)NC(C)(CO)CO [Known compound 3] = 0.6

1: CC(CO)NC(=O)C(C)(C)N=NC(C)(C)C(=O)NC(C)CO (racemic) [Present compound 2]
2: CC(C)(N=NC(C)(C)C(=O)NCCO)C(=O)NCCO [Known compound 1]
Query string: Hi, I'm comparing 1 with 2 and wondering which one has the bigger number for Solubility in Water. Any idea? Your choice should be expressed through its label.
Result string: 2
(2: 2.4 g, 1: 0.6 g)
